# targetOfAssay: T1, N-terminal domain of hCD73 (residues 26-336 of human CD73), His-tagged (human, UniProt P21589 26-336)
# T1 construct: also called N-hCD73; N-hCD73-his
# T1 sequence: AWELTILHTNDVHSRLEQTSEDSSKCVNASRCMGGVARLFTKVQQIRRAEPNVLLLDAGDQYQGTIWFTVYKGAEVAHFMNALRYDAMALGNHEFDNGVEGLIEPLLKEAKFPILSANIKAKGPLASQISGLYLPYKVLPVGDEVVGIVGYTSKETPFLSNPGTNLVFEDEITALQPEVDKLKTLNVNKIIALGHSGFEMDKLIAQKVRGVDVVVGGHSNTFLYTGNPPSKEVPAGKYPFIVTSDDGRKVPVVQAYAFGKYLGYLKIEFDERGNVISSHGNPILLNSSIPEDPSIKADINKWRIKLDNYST
# test: SPR, mAb captured on protein A

| binder | koff (s⁻¹) |
| --- | --- |
| 11A6 (antibody, human IgG1, kappa, V domains shown, IgG1za from hybridoma; also called 11A6-1) VH: EVQLVESGGNLVQPGRSLRLSCAASGFTFDDYAMHWVRQAPGKGLEWVSGISWNNNDIGYADSVKGRFIISRDNAKNSLYLQMNSLRPEDTALYYCVKGYYVILTGLDYWGQGTPVTVSS VL: DIQMTQSPSSLSASVGDRVTITCRASQGISSWLAWYQQKPEKAPKSLIYAASSLQSGVPSRFSGSGSGTDFTLTISSLQPEDFATYYCQQYNSYPLTFGGGTKVEIKR | 0.0076 |
| 10D2 (antibody, human IgG4, kappa, V domains shown, also called 10D2-2) VH: QVQLVESGGGVVQPGRSLRLSCAASGFTFSNYGLHWVRQAPGKGLEWVAVIRYDGSNKYYADSVKGRFTISRDNSKNTLYLQMSSLRAEDTAVYYCARGGSSWYPDGLDVWGQGTTVTVSS VL: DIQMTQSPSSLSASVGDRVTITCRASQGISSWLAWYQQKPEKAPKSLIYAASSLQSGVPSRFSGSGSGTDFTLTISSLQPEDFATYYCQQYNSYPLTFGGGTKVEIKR | 0.00095 |
